The measured values listed here are drawn from ChEMBL document CHEMBL4477272.

Test system: A549
Assay: Cytotoxicity against human A549 cells assessed as reduction in cell viability after 24 hrs by MTT assay
Assay type: functional, cell-based
Conditions: A549, 24 h
pIC50: −log10 of the molar value.
Entries and their pIC50

- Entry Smiles: "COc1ccc(CNCc2ccc3c(c2)OCO3)cc1OC.Cl"
  Target Or Test System: "A549"
  pIC50: 3.93
- Entry Smiles: "COc1ccc2c(c[n+](C)c3c4cc5c(cc4ccc23)OCO5)c1OC"
  Target Or Test System: "A549"
  pIC50: 5.11
- Entry Smiles: "COc1ccc(CN(C)Cc2ccc3c(c2)OCO3)cc1.Cl"
  Target Or Test System: "A549"
  pIC50: "< 3.70"
- Entry Smiles: "CN(Cc1ccccc1)Cc1ccc2c(c1)OCO2.Cl"
  Target Or Test System: "A549"
  pIC50: "< 3.70"
- Entry Smiles: "COc1ccc(CN(C)Cc2ccc3c(c2)OCO3)cc1OC"
  Target Or Test System: "A549"
  pIC50: "< 3.70"
- Entry Smiles: "COc1cc(CNCc2ccc3c(c2)OCO3)cc(OC)c1OC.Cl"
  Target Or Test System: "A549"
  pIC50: "< 3.70"

====

Test: Selectivity index, ratio of IC50 for HUVEC to IC50 for human NCI-H1299 cells
Assay type: toxicity
Conditions: HUVEC versus NCI-H1299 cells, read-out: Ratio IC50
Entries and their selectivity ratio
Test Readout: selectivity ratio

- Entry Smiles: "COc1cc(CNCc2ccc3c(c2)OCO3)cc(OC)c1OC.Cl"
  Measured Value: "> 1.88"
- Entry Smiles: "CN(Cc1ccccc1)Cc1ccc2c(c1)OCO2.Cl"
  Measured Value: "> 2.19"
- Entry Smiles: "COc1ccc2c(c[n+](C)c3c4cc5c(cc4ccc23)OCO5)c1OC"
  Measured Value: 1.15
- Entry Smiles: "Cl.c1ccc(CNCc2ccc3c(c2)OCO3)cc1"
  Measured Value: "> 2.98"
- Entry Smiles: "COc1ccc(CN(C)Cc2ccc3c(c2)OCO3)cc1.Cl"
  Measured Value: "> 2.62"
- Entry Smiles: "COc1ccc(CNCc2ccc3c(c2)OCO3)cc1.Cl"
  Measured Value: "> 2.71"
- Entry Smiles: "COc1ccc(CNCc2ccc3c(c2)OCO3)cc1OC.Cl"
  Measured Value: "> 2.17"

====

Test: Selectivity index, ratio of IC50 for HUVEC to IC50 for human A549 cells
Assay type: toxicity
Settings: HUVEC versus A549 cells, read-out: Ratio IC50
Entries and their selectivity ratio

- Entry Smiles: "COc1ccc(CNCc2ccc3c(c2)OCO3)cc1.Cl"
  selectivity ratio: "> 1.61"
- Entry Smiles: "COc1ccc(CNCc2ccc3c(c2)OCO3)cc1OC.Cl"
  selectivity ratio: "> 1.69"
- Entry Smiles: "COc1ccc2c(c[n+](C)c3c4cc5c(cc4ccc23)OCO5)c1OC"
  selectivity ratio: 0.64
- Entry Smiles: "Cl.Oc1ccc(CNCc2ccc3c(c2)OCO3)cc1O"
  selectivity ratio: "> 1.78"

====

Tested on: A549
Test: Cytotoxicity against human A549 cells assessed as reduction in cell viability after 24 hrs by MTT assay
Type: functional, cell-based
Conditions: A549, 24 h

- Entry Smiles: "COc1cc(CN(C)Cc2ccc3c(c2)OCO3)cc(OC)c1OC"
  Reading Qualifier: ">"
  IC50, µM: 200
- Entry Smiles: "Cl.Oc1ccc(CNCc2ccc3c(c2)OCO3)cc1O"
  Reading Qualifier: "="
  IC50, µM: 112
- Entry Smiles: "Cl.c1ccc(CNCc2ccc3c(c2)OCO3)cc1"
  Reading Qualifier: ">"
  IC50, µM: 200
- Entry Smiles: "COc1ccc(CNCc2ccc3c(c2)OCO3)cc1.Cl"
  Reading Qualifier: "="
  IC50, µM: 124
- Entry Smiles: "COc1ccc(CNCc2ccc3c(c2)OCO3)cc1O"
  Reading Qualifier: ">"
  IC50, µM: 200
